- Test system: CCRIS mutagenicity, Ames/micronucleus/aberration tests
- Protocol Summary: CCRIS mutagenicity studies
- Condition Details: Test System: AMES SALMONELLA TYPHIMURIUM; Strain/Indicator: TA1538; Metabolic Activation: MOUSE, LIVER, S-9, AROCLOR 1254; Method: STANDARD PLATE
The source made the active and inactive calls. How the calls were made is not given here.
Choose one outcome from this list and give only that: active, inactive

Answered cases to consult:
> print(dat)
                                   compound  assigned.category
1                  Nc1ccc2cc3ccc(N)cc3nc2c1             active
2                     CCOc1ccc(NC(C)=O)cc1N             active
3  CC(=O)c1ccc(S(=O)(=O)NC(=O)NC2CCCCC2)cc1           inactive

stdin: Given `COc1cc(-c2ccc(N=C=O)c(OC)c2)ccc1N=C=O` , state the outcome it received in this test.
stdout: active
